Items are presented alongside their recorded pKd.
# MEASURED_TARGET: T1, Pfs230 D1 (aa 587–731) (Plasmodium falciparum, UniProt P68874 587-731)
# T1 chain: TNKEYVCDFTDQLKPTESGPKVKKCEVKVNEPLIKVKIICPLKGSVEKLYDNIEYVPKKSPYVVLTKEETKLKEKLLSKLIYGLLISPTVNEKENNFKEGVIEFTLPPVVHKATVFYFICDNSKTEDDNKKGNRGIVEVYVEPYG
# PROTOCOL_TEXT: BLI
pKd: −log10 of the molar value.
ASSAY_ENDPOINT: pKd

# BINDER, ASSAY_ENDPOINT, VAL
measured = [
    ("nanobody F10 (VHH) VHH: QVQLQESGGGLVQAGGSLRLSCAASGRTFSDYFMGWFRQAPGKEREFVAAVSWSGGSTYYADSVKGRFTISRDNAKNTVFLQMNSLKPEDTAVYYCAGGGSYYPMSPYDGMDYWGKGTQVTVSS", "pKd", 9.92),
    ("nanobody G2 (VHH) VHH: QVQLQESGGGLVQAGGSLRLSCAASGRTFSNYFMGWFRQAPGKEREFVAAVSWSGGSTYYADSVKGRLTISRDNAKNTVYLQMNSLKPEDTAVYYCAAGERYFPMEPRRGYDYWGQGTQVTVSS", "pKd", 9.31),
    ("nanobody E11 (VHH) VHH: QVQLQESGGGLVQPGGSLRLSCAASGFTSDYYGIGWFRQAPGKEREGVACISSSDGSTYYADSVKGRSTISRDNAKNTVYLQMNSLKPEDTAVYYCAADLSGIGCTTAQAMDVIGDFGDFGSWGQGTQVTVSS", "pKd", 8.58),
    ("nanobody B4 (VHH) VHH: QVQLQESGGGLVQPGGSLRLSCAASGFTLDYYGIGWFRQAPGKEREGVSCISSSDGSTYYADSVKGRFTISRDNAKNTVYLQMNSLKPEDTAVYYCAADLTGIGCTTAQAMGVIGDFGDFGSWGQGTQVTVSS", "pKd", 8.77),
]
